Data origin, for the record: the SangsterLogP compilation

Measured logP by item
Attribute Measured: logP

INSERT INTO assay_data (smiles_structure, test_result) VALUES
  ('Clc1ccc2ccccc2c1Cl', 4.42),
  ('Clc1cc2c(Cl)cccc2c(Cl)c1Cl', 5.77),
  ('Clc1c(Cl)c(Cl)c2c(Cl)c(Cl)c(Cl)c(Cl)c2c1Cl', 6.42),
  ('Clc1ccc2cc(Cl)c(Cl)cc2c1', 5.12),
  ('Clc1cc2c(Cl)ccc(Cl)c2cc1Cl', 5.81);

---

- Assay Protocol: method code SF-GLC, from DOI: 10.1002/jps.2600641120, PMID: 1195116
Attribute Measured: logP

INSERT INTO measurements (smiles_structure, attribute_measured, test_result) VALUES
  ('C1CCc2nnnn2CC1', 'logP', 0.14);
